# ASSAY_TARGET: Integrin alpha-4/beta-1 (Homo sapiens, UniProt P05556+P13612)
# Sequence (P05556 whole entry): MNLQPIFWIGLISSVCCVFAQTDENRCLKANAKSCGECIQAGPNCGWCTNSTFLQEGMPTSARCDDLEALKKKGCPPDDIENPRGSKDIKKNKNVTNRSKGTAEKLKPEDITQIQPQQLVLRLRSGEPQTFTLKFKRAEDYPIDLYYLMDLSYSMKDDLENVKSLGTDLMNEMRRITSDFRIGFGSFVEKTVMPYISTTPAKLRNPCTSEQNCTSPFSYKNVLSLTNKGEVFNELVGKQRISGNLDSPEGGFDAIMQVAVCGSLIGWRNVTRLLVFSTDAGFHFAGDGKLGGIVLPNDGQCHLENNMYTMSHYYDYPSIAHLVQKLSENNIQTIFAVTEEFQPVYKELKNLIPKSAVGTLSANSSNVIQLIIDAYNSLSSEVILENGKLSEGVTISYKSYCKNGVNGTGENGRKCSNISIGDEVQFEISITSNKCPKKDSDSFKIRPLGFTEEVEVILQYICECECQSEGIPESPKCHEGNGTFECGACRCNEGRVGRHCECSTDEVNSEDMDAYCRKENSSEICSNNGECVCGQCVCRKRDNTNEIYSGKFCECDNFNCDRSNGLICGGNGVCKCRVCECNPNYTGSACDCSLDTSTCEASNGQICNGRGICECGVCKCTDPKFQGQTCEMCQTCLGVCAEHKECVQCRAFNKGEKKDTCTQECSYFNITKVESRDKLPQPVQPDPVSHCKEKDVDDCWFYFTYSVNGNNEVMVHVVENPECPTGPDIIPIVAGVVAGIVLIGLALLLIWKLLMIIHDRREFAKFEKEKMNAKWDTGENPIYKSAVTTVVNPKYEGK
# Sequence (P13612 whole entry): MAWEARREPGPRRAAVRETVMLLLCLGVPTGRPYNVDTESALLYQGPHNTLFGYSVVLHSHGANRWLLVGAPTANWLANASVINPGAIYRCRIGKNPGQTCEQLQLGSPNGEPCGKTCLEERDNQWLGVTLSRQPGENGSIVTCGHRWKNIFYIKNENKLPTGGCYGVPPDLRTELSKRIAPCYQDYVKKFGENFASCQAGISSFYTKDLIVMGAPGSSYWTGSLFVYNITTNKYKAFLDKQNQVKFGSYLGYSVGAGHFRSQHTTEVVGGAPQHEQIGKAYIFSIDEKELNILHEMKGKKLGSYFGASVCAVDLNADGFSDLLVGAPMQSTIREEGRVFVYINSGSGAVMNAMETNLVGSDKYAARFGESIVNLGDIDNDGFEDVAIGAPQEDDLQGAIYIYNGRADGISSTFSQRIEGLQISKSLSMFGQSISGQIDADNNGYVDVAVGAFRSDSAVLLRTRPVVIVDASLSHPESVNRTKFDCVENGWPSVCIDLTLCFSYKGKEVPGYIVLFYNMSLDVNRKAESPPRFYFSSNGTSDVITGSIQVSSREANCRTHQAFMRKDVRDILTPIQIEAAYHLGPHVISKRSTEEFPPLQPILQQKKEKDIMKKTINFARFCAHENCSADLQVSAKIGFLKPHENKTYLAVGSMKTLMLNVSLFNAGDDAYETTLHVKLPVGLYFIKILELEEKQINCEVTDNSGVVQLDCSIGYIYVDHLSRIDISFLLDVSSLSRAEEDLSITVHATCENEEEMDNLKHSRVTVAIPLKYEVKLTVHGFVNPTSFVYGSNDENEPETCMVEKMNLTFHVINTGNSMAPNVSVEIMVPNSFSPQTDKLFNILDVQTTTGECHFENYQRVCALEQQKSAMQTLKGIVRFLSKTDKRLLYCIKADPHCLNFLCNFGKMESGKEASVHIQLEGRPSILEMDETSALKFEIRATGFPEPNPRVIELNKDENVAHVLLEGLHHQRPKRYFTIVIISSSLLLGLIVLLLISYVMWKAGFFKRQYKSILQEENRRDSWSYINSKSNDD
# EXPERIMENTAL_DETAILS: Inhibitory binding concentration against VCAM/VLA-4 in Ramos.
# Format: protein-complex assay
pIC50: −log10 of the molar value.
VALUE_TYPE: pIC50

- STRUCTURE_SMILES: "CCCc1cccc(C)c1C(=O)N[C@@H](Cc1ccc(NC(=O)c2c(Cl)cccc2Cl)cc1)C(=O)O"
  ASSAY_TARGET: "Integrin alpha-4/beta-1 (Homo sapiens, UniProt P05556+P13612)"
  pIC50: 7.77
- STRUCTURE_SMILES: "COc1ccccc1C(=O)N[C@@H](Cc1ccc(NC(=O)c2c(Cl)cccc2Cl)cc1)C(=O)O"
  ASSAY_TARGET: "Integrin alpha-4/beta-1 (Homo sapiens, UniProt P05556+P13612)"
  pIC50: 5.17
- STRUCTURE_SMILES: "Cc1cccc(F)c1C(=O)N[C@@H](Cc1ccc(NC(=O)c2c(Cl)cccc2Cl)cc1)C(=O)O"
  ASSAY_TARGET: "Integrin alpha-4/beta-1 (Homo sapiens, UniProt P05556+P13612)"
  pIC50: 7.07
- STRUCTURE_SMILES: "CC(=O)c1cccc(Cl)c1C(=O)N[C@@H](Cc1ccc(NC(=O)c2c(Cl)cccc2Cl)cc1)C(=O)O"
  ASSAY_TARGET: "Integrin alpha-4/beta-1 (Homo sapiens, UniProt P05556+P13612)"
  pIC50: 7.31
- STRUCTURE_SMILES: "O=C(N[C@@H](Cc1ccc(NC(=O)c2c(Cl)cccc2Cl)cc1)C(=O)O)c1ccccc1Br"
  ASSAY_TARGET: "Integrin alpha-4/beta-1 (Homo sapiens, UniProt P05556+P13612)"
  pIC50: 7.35
- STRUCTURE_SMILES: "CSc1ccccc1C(=O)N[C@@H](Cc1ccc(NC(=O)c2c(Cl)cccc2Cl)cc1)C(=O)O"
  ASSAY_TARGET: "Integrin alpha-4/beta-1 (Homo sapiens, UniProt P05556+P13612)"
  pIC50: 7.00

A = O=C(N[C@@H](Cc1ccc(NC(=O)c2c(Cl)cccc2Cl)cc1)C(=O)O)c1cccc(Cl)c1Cl
B = Cc1cc(C(F)(F)F)c(C(=O)N[C@@H](Cc2ccc(NC(=O)c3c(Cl)cccc3Cl)cc2)C(=O)O)c(C)n1
C = CNc1ccccc1C(=O)N[C@@H](Cc1ccc(NC(=O)c2c(Cl)cccc2Cl)cc1)C(=O)O
D = Cc1nc(C(C)C)sc1C(=O)N[C@@H](Cc1ccc(NC(=O)c2c(Cl)cccc2Cl)cc1)C(=O)O
E = Cc1ccnc(C)c1C(=O)N[C@@H](Cc1ccc(NC(=O)c2c(Cl)cccc2Cl)cc1)C(=O)O
Incoming: Place the items in sequence of falling pIC50. Answer by listing the labels in the requested order.
Outgoing: E, D, B, C, A
(E: 7.64, D: 7.16, B: 6.70, C: 6.00, A: 5.80)

1 = O=C(N[C@@H](Cc1ccc(NC(=O)c2c(Cl)cccc2Cl)cc1)C(=O)O)c1ccc(Br)cc1Cl
2 = CS(=O)(=O)c1ccccc1C(=O)N[C@@H](Cc1ccc(NC(=O)c2c(Cl)cccc2Cl)cc1)C(=O)O
Incoming: Please tell me which of the two, 1 or 2 , has the higher reported pIC50 value. Indicate which entry you chose by stating its label.
Outgoing: 2
(2: 6.80, 1: 5.89)

1 = Cc1nn(-c2ccccc2)nc1C(=O)N[C@@H](Cc1ccc(NC(=O)c2c(Cl)cccc2Cl)cc1)C(=O)O
2 = Cc1ccc(Cl)c(C(=O)N[C@@H](Cc2ccc(NC(=O)c3c(Cl)cccc3Cl)cc2)C(=O)O)c1
Incoming: Form field 'greater pIC50' accepts 1 or 2 ; which applies? Selection: enter the item's label.
Outgoing: 2

1 = COc1ccc(Br)c(C(=O)N[C@@H](Cc2ccc(NC(=O)c3c(Cl)cccc3Cl)cc2)C(=O)O)c1
2 = Cc1cccc(C)c1C(=O)N[C@@H](Cc1ccc(NC(=O)c2c(Cl)cccc2Cl)cc1)C(=O)O
Incoming: Smaller pIC50 value, 1 vs 2 ? Indicate which entry you chose by stating its label.
Outgoing: 2
(2: 7.08, 1: 7.72)

Cited source for all entries: ChEMBL document CHEMBL1135312
